The measured values listed here are drawn from ChEMBL document CHEMBL5308541.

Tested on: Plasmodium falciparum
Assay Remarks: Confirmatory screen in NF54 nanoGlo assay, in single point, at 2uM, 72h
Type: functional, Erythrocyte
Test Parameters: timepoint 72 hour
The campaign covered roughly 4,800 compounds. About 420 (8.8%) showed an effect of 50% or more. The entries come from a sample that favours strong results as a whole.
Result Type: % Inhibition (%)
Give the value, in units of %, as a plain number.

Any idea what % Inhibition was measured for CC(C)(C)c1ccc(CNC[C@H](O)c2ccc(F)cc2F)cc1 ?
95

// query % Inhibition value for entry O[C@@H](CNCc1ccc2c(c1)CCO2)c1ccc(F)c(F)c1
61

// query % Inhibition value for entry CN1C2CCC1CC(OC(=O)C1CCC(C(=O)OC3CC4CCC(C3)N4C)(c3ccccc3)c3ccccc31)C2 (centres undefined)
49

What does the data say about its % Inhibition? Entry: CN1CCN(c2ccc(C(F)(F)F)cc2NCc2cnc[nH]2)CC1
62
